- experiment.notes: Metabolic stability in human liver microsomes assessed as half life
- Format: ADME, Microsome
measured.parameter: half-life
Write the numeric value and follow it with the unit.

Request: Provide only the value of recorded half-life for CNC(=O)c1ccccc1Nc1cc(Nc2ccc(N3CCOCC3)cc2OC)ncc1C(F)(F)F
Response: 32 min
